The reported numbers originate from DBAASP.

Listed compounds paired with reported MIC
system: Pseudomonas aeruginosa ATCC 9027; assay: ≥ marks a high value that may be exact or a test limit, other limits are often not marked, values filed in µg/mL are converted to µM
Give the value, in units of µM, as a plain number.

CC[C@H](C)[C@H](NC(=O)[C@H](C)NC(=O)[C@H](Cc1ccccc1)NC(=O)[C@H](CC(C)C)NC(=O)CN)C(=O)N[C@H](C(=O)N[C@@H](CCCCN)C(=O)N[C@@H](CCCCN)C(=O)N[C@H](C(=O)N[C@@H](C)C(=O)N[C@@H](CCC(=O)O)C(=O)N[C@@H](CO)C(=O)N[C@@H](Cc1ccccc1)C(N)=O)[C@@H](C)CC)[C@@H](C)CC [GLFAIIKKIAESF]	44.5

Okay, next one:
Answer with the recorded MIC for the compound listed here: NC(=O)[C@H](Cc1ccc(O)cc1)NC(=O)[C@H](Cc1c[nH]c2ccccc12)NC(=O)[C@H](CCCN=C(N)N)NC(=O)[C@H](CCCN=C(N)N)NC(=O)[C@H](Cc1ccc(O)cc1)NC(=O)[C@H](Cc1c[nH]c2ccccc12)NC(=O)[C@H](CCCN=C(N)N)NC(=O)[C@H](CCCN=C(N)N)NC(=O)[C@H](Cc1ccc(O)cc1)NC(=O)[C@H](Cc1c[nH]c2ccccc12)NC(=O)[C@H](CCCN=C(N)N)NC(=O)[C@@H](N)CCCN=C(N)N [RRWYRRWYRRWY]
0.49
